# TEST_SYSTEM: Amine oxidase [flavin-containing] B (Homo sapiens)
# Sequence (P27338 whole entry): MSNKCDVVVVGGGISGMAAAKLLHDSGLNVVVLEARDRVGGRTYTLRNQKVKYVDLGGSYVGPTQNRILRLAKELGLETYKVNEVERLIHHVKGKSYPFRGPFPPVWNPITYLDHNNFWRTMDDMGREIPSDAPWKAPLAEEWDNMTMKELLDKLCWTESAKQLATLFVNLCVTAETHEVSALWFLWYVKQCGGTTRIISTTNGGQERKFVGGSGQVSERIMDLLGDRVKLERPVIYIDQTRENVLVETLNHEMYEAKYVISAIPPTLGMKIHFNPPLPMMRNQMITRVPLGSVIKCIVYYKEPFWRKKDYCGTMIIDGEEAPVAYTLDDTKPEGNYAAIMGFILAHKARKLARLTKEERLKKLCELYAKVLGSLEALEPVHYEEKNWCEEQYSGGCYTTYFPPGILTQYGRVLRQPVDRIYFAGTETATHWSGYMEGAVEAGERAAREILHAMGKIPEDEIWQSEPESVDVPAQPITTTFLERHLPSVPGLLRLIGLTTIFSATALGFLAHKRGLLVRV
# EXPERIMENTAL_DETAILS: Inhibition of recombinant human MAO-B at 10 uM using kynuramine as substrate after 30 mins by fluorescence assay relative to control
# CONDITION_SUMMARY: 0.5 h
PROPERTY: inhibition at 10 µM
State the value with its unit after it.

# count of solved cases: 6
CCN(CCCn1sc2cc(OC)c(OC)cc2c1=O)Cc1ccccc1OC = 37%
CCN(CCCCCCN1C(=O)c2cc(OC)c(OC)cc2S1(=O)=O)Cc1ccccc1 = 38.9%
COc1ccccc1CN(C)CCCn1sc2cc(OC)c(OC)cc2c1=O = 48.6%
COc1ccccc1CN(C)CCCCCCn1c(=O)c2cc(OC)c(OC)cc2[s+]1[O-] (configuration not stated) = 12.2%
CCN(CCCn1sc2cc(OC)c(OC)cc2c1=O)Cc1ccccc1N(C)C = 45.4%
CCN(CCCCn1sc2cc(OC)c(OC)cc2c1=O)Cc1ccccc1N(C)C = 46.5%

# ---- query compound ----
Input line: In one line, give reported inhibition at 10 µM of the entry COc1ccccc1CN(C)CCCCCCN1C(=O)c2cc(OC)c(OC)cc2S1(=O)=O .
Output line: 29.2%

====

# TEST_SYSTEM: Amine oxidase [flavin-containing] A (Homo sapiens)
# Sequence (P21397 whole entry): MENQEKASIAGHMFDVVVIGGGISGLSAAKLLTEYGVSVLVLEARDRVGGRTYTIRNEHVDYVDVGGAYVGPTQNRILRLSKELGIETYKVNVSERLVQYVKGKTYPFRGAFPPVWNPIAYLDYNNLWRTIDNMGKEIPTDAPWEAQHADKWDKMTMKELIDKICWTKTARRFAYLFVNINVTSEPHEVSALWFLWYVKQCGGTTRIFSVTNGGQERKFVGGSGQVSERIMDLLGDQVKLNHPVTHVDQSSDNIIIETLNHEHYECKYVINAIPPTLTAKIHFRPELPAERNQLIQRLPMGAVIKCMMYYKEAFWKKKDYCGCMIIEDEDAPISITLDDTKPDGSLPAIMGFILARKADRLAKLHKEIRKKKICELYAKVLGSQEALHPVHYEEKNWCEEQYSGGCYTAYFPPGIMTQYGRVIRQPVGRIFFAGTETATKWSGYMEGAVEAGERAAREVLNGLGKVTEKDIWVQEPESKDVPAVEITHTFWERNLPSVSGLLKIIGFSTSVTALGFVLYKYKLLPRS
# EXPERIMENTAL_DETAILS: Inhibition of recombinant human MAO-A using kynuramine as substrate after 30 mins by fluorescence assay
PROPERTY: IC50 (µM)
Reply with just the number (in µM).

Solved cases (4 shown):
COc1cc2sn(CCCCN(C)Cc3ccccc3)c(=O)c2cc1OC = 8.9
CCN(CCCn1sc2cc(OC)c(OC)cc2c1=O)Cc1ccccc1 = 9.9
CCN(CCCCCCn1sc2cc(OC)c(OC)cc2c1=O)Cc1ccccc1 = 8.2
CCN(CCCCn1sc2cc(OC)c(OC)cc2c1=O)Cc1ccccc1OC = 9.6

Input line: For CCN(CCCCn1sc2cc(OC)c(OC)cc2c1=O)Cc1ccccc1N(C)C , write its IC50.
Output line: 9.9

Reference source: ChEMBL document CHEMBL4219111
